Target: E. coli SPase (Escherichia coli)
Test: Biochemical SPase activity assay (fluorogenic peptide substrate), E. coli enzyme
Square brackets hold non-standard residues; d marks the D form. Peptide text beside a SMILES is read from it. * marks the point of attachment. ξ: configuration not given here. Biphenylcarbonyl(4'-Bu) = CCCCc1ccc(-c2ccc(C(=O)*)cc2)cc1; X1 = C[C@H](N*)B1OC2C[C@@H]3C[C@@H](C3(C)C)[C@]2(C)O1; Benzoyl(4-(4-Cl-Ph)) = O=C(c1ccc(-c2ccc(Cl)cc2)cc1)*; Pro(4S-NH2) = N[C@@H]1CN[C@H](C(=O)O)C1; Hpg = N[C@H](C(=O)O)c1ccc(O)cc1; Gly(cPr) = N[C@H](C(=O)O)C1CC1; Thr(3ξ) = CC(O)[C@H](N)C(=O)O; boroAla = C[C@H](N*)B(O)O; Dab = NCC[C@H](N)C(=O)O; Abu = CC[C@H](N)C(=O)O; Dap = NC[C@H](N)C(=O)O; βAla = NCCC(=O)O
Reported values of IC50 for individual entries
Number first, unit second: that is the form wanted.

- molecule: "CCCCc1ccc(-c2ccc(C(=O)N[C@@H](CCN)C(=O)N[C@@H](CCN)C(=O)N[C@@H](C)C(=O)N[C@@H](CC)C(=O)N[C@@H](C)B3OC4C[C@@H]5C[C@@H](C5(C)C)[C@]4(C)O3)cc2)cc1 (some centres unmarked) [Compound 182] ({Biphenylcarbonyl(4'-Bu)}-[Dab][Dab]A[Abu]-X1)"
  reading: "35 nM"
- molecule: "CCCCc1ccc(-c2ccc(C(=O)N3C[C@@H](N)C[C@H]3C(=O)N3CCC[C@H]3C(=O)N[C@@H](C)C(=O)N[C@@H](CCCCN)C(=O)N[C@@H](C)B3OC4C[C@@H]5C[C@@H](C5(C)C)[C@]4(C)O3)cc2)cc1 (stereo partly drawn) [Compound 181] ({Biphenylcarbonyl(4'-Bu)}-[Pro(4S-NH2)]PAK-X1)"
  reading: "5.4 nM"
- molecule: "CCCCc1ccc(-c2ccc(C(=O)NCCC(=O)N[C@@H](CCCCN)C(=O)N[C@H](C(=O)N[C@@H](C)C(=O)N[C@@H](CC(N)=O)C(=O)N[C@@H](C)B3OC4C[C@@H]5C[C@@H](C5(C)C)[C@]4(C)O3)c3ccc(O)cc3)cc2)cc1 (some centres unmarked) [Compound 209] ({Biphenylcarbonyl(4'-Bu)-βAla}-K[Hpg]AN-X1)"
  reading: "12 nM"
- molecule: "CCCCc1ccc(-c2ccc(C(=O)N[C@@H](CCN)C(=O)N[C@@H](CCN)C(=O)N[C@@H](C)C(=O)N[C@@H](CC(C)C)C(=O)N[C@@H](C)B(O)O)cc2)cc1 [Compound 179] ({Biphenylcarbonyl(4'-Bu)}-[Dab][Dab]AL-boroAla)"
  reading: "22 nM"
- molecule: "CCCCc1ccc(-c2ccc(C(=O)NCCC(=O)N[C@@H](CCCCN)C(=O)N[C@H](C(=O)N[C@@H](C)C(=O)N[C@@H](CC(C)C)C(=O)N[C@@H](C)B3OC4C[C@@H]5C[C@@H](C5(C)C)[C@]4(C)O3)[C@@H](C)O)cc2)cc1 (some centres unmarked) [Compound 198] ({Biphenylcarbonyl(4'-Bu)-βAla}-KTAL-X1)"
  reading: "42 nM"

input: Please supply the value of reported IC50 for the item CCCCc1ccc(-c2ccc(C(=O)N[C@@H](CCCCN)C(=O)N[C@H](C(=O)N[C@H](C(=O)N[C@@H](CCCCN)C(=O)N[C@@H](C)B(O)O)C3CC3)C(C)O)cc2)cc1 (some centres unmarked) [Compound 147] ({Biphenylcarbonyl(4'-Bu)}-K[Thr(3ξ)][Gly(cPr)]K-boroAla)
output: 14 nM

input: Please supply the value of reported IC50 for the item CCCCCCCCCCCCCC(=O)N[C@@H](CC(C)C)C(=O)N[C@H](C(=O)N1CCC[C@@H]1C(=O)N[C@H](C(=O)N[C@@H](C)C(=O)N[C@@H](Cc1ccc(O)cc1)C(=O)NC(C)C(=O)C(=O)NC)C(C)O)C(C)O (mixture of isomers) [Compound 112]
output: 31000 nM

input: Please supply the value of reported IC50 for the item C[C@H](NC(=O)[C@H](CCCCN)NC(=O)[C@H](C)NC(=O)[C@H](CCCCN)NC(=O)[C@H](CN)NC(=O)c1ccc(-c2ccc(Cl)cc2)cc1)B1OC2C[C@@H]3C[C@@H](C3(C)C)[C@]2(C)O1 (some centres unmarked) [Compound 168] ({Benzoyl(4-(4-Cl-Ph))}-[Dap]KAK-X1)
output: 5.4 nM

input: Please supply the value of reported IC50 for the item CCCCc1ccc(-c2ccc(C(=O)NCCC(=O)N[C@@H](CCCCN)C(=O)N[C@@H](Cc3ccc(O)cc3)C(=O)N[C@@H](C)C(=O)N[C@@H](CCCCN)C(=O)N[C@@H](C)B(O)O)cc2)cc1 [Compound 215] ({Biphenylcarbonyl(4'-Bu)-βAla}-KYAK-boroAla)
output: 77 nM

input: Please supply the value of reported IC50 for the item CCCCc1ccc(-c2ccc(C(=O)N[C@@H]3CN[C@H](C(=O)N[C@H](C(=O)N[C@@H](C)C(=O)N[C@@H](CCCCN)C(=O)N[C@@H](C)B4OC5C[C@@H]6C[C@@H](C6(C)C)[C@]5(C)O4)[C@@H](C)O)C3)cc2)cc1 (some centres unmarked) [Compound 268]
output: 1600 nM

Reference for the values: patent US9708368B2
